Target: thrombin (Homo sapiens, UniProt P00734)
Construct: consists of two polypeptide chains of 36 (light chain) and 259 amino acid
Experiment: Thrombin inhibition screen of crude macrocycle reactions (residual thrombin activity, fluorogenic substrate Z-Gly-Gly-Arg-AMC)
Format: biochemical
Details: 10 µM macrocycle concentration; crude reactions, Library 1a-l; scaffold AA1-AA2-AA3 combined with 1-16 or '-'
Numbered stars: 1 amine (or outer) side, 2 acyl side, 3 side chain; on linkers, the order of the positions; unused ones are H or OH. Bridge positions count the residues as written; N and C are the ends. Square brackets hold non-standard residues; d marks the D form. Peptide text beside a SMILES is read from it. * marks the point of attachment. Cysteamide = C(CS[*:3])N[*:1]; 3Amb = NCc1cccc(C(=O)O)c1; Isovaleryl = CC(C)CC(=O)*; Mpa = O=C(O)CCS
parameter.measured: percent residual thrombin activity (%)

1. O=C1CCSSCCNC(=O)C2(CC2)CNC(=O)[C@H](CO)NC(=O)[C@H](CCCCNC(=O)c2c[nH]c(=O)[nH]c2=O)N1 [D1-S-B6/11] ... 103.758
2. NC(=O)CC[C@@H]1NC(=O)[C@H](CCCCNC(=O)c2ccco2)NC(=O)C2(CC2)CNC(=O)CCSSCCNC1=O [B6-D1-Q/16] ... 101.173
3. NC(=O)CC[C@@H]1NC(=O)c2ccc(cc2)CNC(=O)[C@H](CCCNC(=O)c2c[nH]c(=O)cn2)NC(=O)CCSSCCNC1=O [D2-B3-Q/9] ... 109.29
4. CC(C)CC(=O)NCCCC[C@@H]1NC(=O)[C@@H](C)NC(=O)CCSSCCNC(=O)c2cccc(c2)CNC1=O [a-D1-B5/8] ([Mpa][dA]K(Isovaleryl)[3Amb]-Cysteamide; disulfide 1-C) ... 99.075
5. O=C1CCSSCCNC(=O)[C@H](Cc2c[nH]c3ccccc23)NC(=O)[C@H](CCCNC(=O)COc2ccccc2)NC(=O)C2(CC2)CN1 [B6-D2-W/13] ... 95.6589
6. NC(=O)CC[C@@H]1NC(=O)CCSSCCNC(=O)[C@H](CCCCNC(=O)c2ccc(Cl)s2)NC(=O)C2(CC2)CNC1=O [Q-B6-D1/14] ... 99.4946
7. O=C1CCSSCCNC(=O)[C@H](CCCCNC(=O)c2c[nH]c(=O)[nH]c2=O)NC(=O)[C@H](Cc2c[nH]cn2)NC(=O)c2ccc(cc2)CN1 [B3-H-D1/11] ... 112.941
8. CC(C)C[C@@H]1NC(=O)[C@H](CCCNC(=O)COc2ccccc2)NC(=O)C2(CC2)CNC(=O)CCSSCCNC1=O [B6-D2-L/13] ... 118.291
